Cited source: ChEMBL document CHEMBL3988442

Target: Shiga toxin 2 (Escherichia coli O157:H7) (UniProt P09385+P09386)
Assay: E. coli 0.157:H7 Shiga Toxin SOP - stx2 screening assay
Assay type: functional
Parameters: scale not given: direction of the effect not stated beside the values
Details: 30 µM
MEASURE: Percent Effect (%)

COMPOUND | MEASURE | ENDPOINT VALUE
N#Cc1cnn(-c2ccc(C(=O)Nc3ccccn3)cc2)c1N | Percent Effect | -40.7
Cn1cnc2c1CCN(Cc1nc(Cc3ccccc3)no1)C2 | Percent Effect | 15.1
Cn1cc(CN2C[C@@H]3COC[C@@H](C(=O)N4CCCCO4)[C@@H]3C2)cn1 | Percent Effect | -15.2
COCC(=O)N1CCN(Cc2coc(-c3cccc(F)c3)n2)CC1 | Percent Effect | 16.9
CCN(CC)C(=O)c1ccn(COc2ccccc2)n1 | Percent Effect | 4.36
Cc1c(F)cccc1CN1CCn2nc(CNC(=O)N(C)C)cc2C1 | Percent Effect | -49.9
CCn1cnnc1CNC(=O)N1CCC(C(=O)NC)CC1 | Percent Effect | -16.1
c1ccc(-c2ccc3nc(C4CCN(CC5CC5)CC4)nn3c2)cc1 | Percent Effect | -51.6
CCOCC(O)CN1CCN(C(=O)Cc2ccc3c(c2)CCO3)CC1 (configuration not stated) | Percent Effect | 30.7
CCc1nc(C2CCCN(C(=O)c3cnn(CC)c3)C2)no1 (configuration not stated) | Percent Effect | 3.55
Cc1cc(CN(Cc2cccs2)CC2CCCO2)no1 (configuration not stated) | Percent Effect | 12.5
CCOCC1CN(Cc2ccoc2)Cc2nn(CC3CC3)cc21 (configuration not stated) | Percent Effect | -16.8

###

Reported Percent Effect values are given for each entry in this list.
Molecular target: Shiga toxin 2 (Escherichia coli O157:H7) (UniProt P09385+P09386)
Test: E. coli 0.157:H7 Shiga Toxin SOP - stx2 screening assay
Type: functional
Design: scale not given: direction of the effect not stated beside the values
Conditions: 30 µM

MOLECULE | Percent Effect / %
CCn1cc(CN2CCCC(c3[nH]ncc3S(C)(=O)=O)C2)cn1 (centres undefined) | -18.8
CS(=O)(=O)N1C[C@@H]2CC[C@H](C1)N(Cc1cscn1)C2=O | -13.6
Cc1noc(C2CCC3(CCN(C(=O)C4=CCCCC4)CC3)O2)n1 (centres undefined) | 7.42
Cn1cc(-c2csc(CN3CCOCC3)n2)cn1 | 2.01
CC(C#N)CSc1ccccc1NCC(=O)Nc1ccc(F)cc1 (centres undefined) | -7.42
CC(C)n1c(C2CCCN(Cc3ccnn3C)C2)nc2ccccc21 (centres undefined) | 1.29
COc1ccc(C)cc1CSCCn1nc2ccccn2c1=O | 6.71
CN(C)c1ncccc1CNC(=O)N1CCCC1c1ccsc1 (centres undefined) | 5.76
Cc1nc(C2CCCN(C(=O)CCCn3cccn3)C2)no1 (centres undefined) | -27.3
COC(=O)c1cccc(NC(=O)CN2CCN(S(C)(=O)=O)CC2)c1 | 10.4
Cc1cccc(-c2nc(CN(Cc3cccs3)CC3CCCO3)no2)c1 (centres undefined) | -5.45
Cc1nn(C)c(Cl)c1C1CCCN1CCc1ccccn1 (centres undefined) | -0.4
O=C(C1=CC2(CCNCC2)c2ccccc21)N1CCCC1 | -0.391
Cc1cccc(CN2CC[C@@H]3[C@@H]2CCN3C(=O)c2cnoc2C)n1 | 5.3
CCN(Cc1ccc2c(c1)OCO2)C(=O)CCc1c(C)nc(C)[nH]c1=O | 29.9
CC(C)(C)c1nnc(CN2CCCC2c2noc(C3CC3)n2)o1 (centres undefined) | 0.0549
COCc1ncc(CN2CCC(Oc3ccccc3OC)CC2)cn1 | -1.31
COc1cccc(CC(=O)N2CCc3ncnc(NC(C)C)c3CC2)c1 | -3.19
O=S(=O)(CCN1CCOC(Cn2cncn2)C1)c1ccccc1 (centres undefined) | -7.21
Cc1nn(C)c(Cl)c1CNCc1cccnc1N1CCOCC1 | 4.19
CC(C)Oc1cc(N2CCC(N3CCC(O)CC3)CC2)nc(N)n1 | 2.73
Cc1ncc(-c2ccnc(N3CCCCCC3)n2)c(-c2cccnc2)n1 | -25.4
CCN1C(=O)CCC12CCCN(Cc1nccs1)CC2 (centres undefined) | 1.68
CC(C)CC(=O)N1C[C@@H]2CCN(c3ncccn3)C[C@@H]2C1 | -21.6
